B1: Pistol ribozyme (parent)
chain: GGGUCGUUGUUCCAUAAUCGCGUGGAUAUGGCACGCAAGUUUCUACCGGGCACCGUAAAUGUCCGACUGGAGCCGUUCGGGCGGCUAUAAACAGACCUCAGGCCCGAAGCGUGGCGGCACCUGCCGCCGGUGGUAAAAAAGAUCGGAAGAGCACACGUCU

Variants of: B1
assay.name: aptazyme ON/OFF ratio, guanine; higher = stronger switching; co-transcriptional cleavage with and without guanine
Documented aptazyme ON/OFF ratio across a set of variants
Please reply with the value in numeric form only.

Here is how some variants turned out for aptazyme ON/OFF ratio.
INSERT INTO measurements (variant_key, observed_property, result_number) VALUES
  ('U7A U8A G9C U10C C12U', 'aptazyme ON/OFF ratio', 1.07),
  ('G9A U10C U11A C12G C13G', 'aptazyme ON/OFF ratio', 1.31),
  ('U7G U8C G9U U10A C12U', 'aptazyme ON/OFF ratio', 2.85),
  ('U7A U8A G9C U10C U11A C12U C13A', 'aptazyme ON/OFF ratio', 1.03),
  ('U7A U8G G9A U10C U11C C12A', 'aptazyme ON/OFF ratio', 1.13),
  ('U7C U8A G9A U10C U11C C13U', 'aptazyme ON/OFF ratio', 0.994),
  ('U7C U8A G9A U11G C12U', 'aptazyme ON/OFF ratio', 1.37),
  ('U7A U8A G9C U10C U11C C12U C13A', 'aptazyme ON/OFF ratio', 1.01);

Give the measured aptazyme ON/OFF ratio of G9U U10C U11C C12U .
1.31

Queued: U7C G9A C12A
1.33

Quick one: U7G U8C G9U U10C C12U
1.12

Please do the same for U7G U8G G9A U10G U11G C12G C13A as well.
1.23

Param item: U7C U8A U10C U11A C12A C13U
1.14

Then this variant: U7A U8C U10G U11A C12A
1.42

Same for U7A U8A U11A C12A C13A
1.33

Now give it for U8A G9C U11C C12G C13U too.
1.06
